experiment description: Solubility test of curcumin in oils, surfactants, milk, BSA and casein
Format: physicochemical
conditions: 37 °C, plasma or biological fluid, thermodynamic from solid; in Milk; read-out: Solubility of Curcumin in milk, BSA and Casein
result type: solubility at 72 h
Numeric answer plus unit only.

Challenge: // query solubility at 72 h value for entry COc1cc(/C=C/C(=O)/C=C(O)/C=C/c2ccc(O)c(OC)c2)ccc1O [Curcumin, curcumin]
Response given: 23.8 mg/mL

====

experiment description: Solubility test of curcumin in oils, surfactants, milk, BSA and casein
Assay type: physicochemical
conditions: organic solvent or mixture, thermodynamic from solid; in PEG 600 (100% conc); 37° C., 72 h; read-out: Solubility of Curcumin in surfactants, Sol
result type: solubility at 72 h (µg/mL)
Use µg/mL as the unit, but write only the number.

Challenge: // query solubility at 72 h value for entry COc1cc(/C=C/C(=O)/C=C(O)/C=C/c2ccc(O)c(OC)c2)ccc1O
Response given: 123
